# METHOD_SUMMARY: Decomposition temperature by thermogravimetric-differential thermal analysis (TG-DTA)
# Format: physicochemical
# CONDITION: temperature at which weight loss initiated
PROPERTY: Decomposition temperature (°C)

COCCN1/C(=C/C=C2\CCCC(/C=C/C3=[N+](CCOC)c4ccc5ccccc5c4C3(C)C)=C2Cl)C(C)(C)c2c1ccc1ccccc21: 242.9
COCCN1/C(=C/C=C2\CCCC(/C=C/C3=[N+](CCOC)c4ccccc4C3(C)C)=C2Cl)C(C)(C)c2ccccc21: 224.6
CCCCOCCN1/C(=C/C=C2\CCC(/C=C/C3=[N+](CCOCCCC)c4ccc5ccccc5c4C3(C)C)=C2Cl)C(C)(C)c2c1ccc1ccccc21: 186.0
COCCN1/C(=C/C=C2\CCC(/C=C/C3=[N+](CCOC)c4ccc5ccccc5c4C3(C)C)=C2Cl)C(C)(C)c2c1ccc1ccccc21: 213.0

----------
# METHOD_SUMMARY: Heat resistance stability test of filter (oven 80° C., 7 days)
# Format: physicochemical
# CONDITION: (Absorbance after the test/Absorbance before the test)×100; 80° C., 7 days
PROPERTY: Residual Ratio (%)

CN1/C(=C/C=C2\CCCC(/C=C/C3=[N+](C)c4ccc5ccccc5c4C3(C)C)=C2Cl)C(C)(C)c2c1ccc1ccccc21 [Compound B]: 85.6
COCCN1/C(=C/C=C/C=C/C=C/C2=[N+](CCOC)c3ccccc3C2(C)C)C(C)(C)c2ccccc21 [Compound 30]: 89.7
CN1/C(=C/C=C/C=C/C=C/C2=[N+](C)c3ccc4ccccc4c3C2(C)C)C(C)(C)c2c1ccc1ccccc21 [Compound C]: 80.9
COCCN1/C(=C/C=C2\CCCC(/C=C/C3=[N+](CCOC)c4ccccc4C3(C)C)=C2Cl)C(C)(C)c2ccccc21 [Compound A]: 87.2
COCCN1/C(=C/C=C2\CCCC(/C=C/C3=[N+](CCOC)c4ccc5ccccc5c4C3(C)C)=C2Cl)C(C)(C)c2c1ccc1ccccc21 [Compound 31]: 80.9

----------
# METHOD_SUMMARY: Heat resistance stability test of filter (oven 80° C., 7 days)
# Type: physicochemical
# CONDITION: acryl resin filter on polyester film, at maximum absorption wavelength, before 80° C. test
PROPERTY: Absorbance (OD value) Initial

COCCN1/C(=C/C=C/C=C/C=C/C2=[N+](CCOC)c3ccccc3C2(C)C)C(C)(C)c2ccccc21 [Compound 30]: 0.83
CN1/C(=C/C=C2\CCCC(/C=C/C3=[N+](C)c4ccc5ccccc5c4C3(C)C)=C2Cl)C(C)(C)c2c1ccc1ccccc21 [Compound B]: 0.67
COCCN1/C(=C/C=C2\CCCC(/C=C/C3=[N+](CCOC)c4ccc5ccccc5c4C3(C)C)=C2Cl)C(C)(C)c2c1ccc1ccccc21 [Compound 31]: 0.65
COCCN1/C(=C/C=C2\CCCC(/C=C/C3=[N+](CCOC)c4ccccc4C3(C)C)=C2Cl)C(C)(C)c2ccccc21 [Compound A]: 0.83
CN1/C(=C/C=C/C=C/C=C/C2=[N+](C)c3ccc4ccccc4c3C2(C)C)C(C)(C)c2c1ccc1ccccc21 [Compound C]: 0.75

----------
# METHOD_SUMMARY: Heat resistance stability test of filter (oven 80° C., 7 days)
# Format: physicochemical
# CONDITION: acryl resin filter, oven at 80° C. for 7 days
# Method: In this connection, absorbance (OD value) was measured using a spectrophotometer UV-3150 made by Shimadzu Corp. When measurement was carried out using a solvent, the same solvent was measured as a blank, and when measurement was carried out using a filter, a filter which had the same composition except that only the cyanine compound was not contained was produced and measured as a blank. In 18.8 parts of MEK, 0.4 parts of Compound 31 obtained in the above Example 5 was dissolved. […]
PROPERTY: Absorbance (OD value) After 7 days

CN1/C(=C/C=C/C=C/C=C/C2=[N+](C)c3ccc4ccccc4c3C2(C)C)C(C)(C)c2c1ccc1ccccc21: 0.61
COCCN1/C(=C/C=C2\CCCC(/C=C/C3=[N+](CCOC)c4ccc5ccccc5c4C3(C)C)=C2Cl)C(C)(C)c2c1ccc1ccccc21: 0.52
COCCN1/C(=C/C=C2\CCCC(/C=C/C3=[N+](CCOC)c4ccccc4C3(C)C)=C2Cl)C(C)(C)c2ccccc21: 0.72
COCCN1/C(=C/C=C/C=C/C=C/C2=[N+](CCOC)c3ccccc3C2(C)C)C(C)(C)c2ccccc21: 0.74
CN1/C(=C/C=C2\CCCC(/C=C/C3=[N+](C)c4ccc5ccccc5c4C3(C)C)=C2Cl)C(C)(C)c2c1ccc1ccccc21: 0.57
